molecular target: human DGKα (Homo sapiens (Human), UniProt P23743); test: biochemical; conditions: detergent/lipid micelle substrate; read-out: DGKα IC50
Sequence (P23743 other isoform, or with tags, fused parts or gaps): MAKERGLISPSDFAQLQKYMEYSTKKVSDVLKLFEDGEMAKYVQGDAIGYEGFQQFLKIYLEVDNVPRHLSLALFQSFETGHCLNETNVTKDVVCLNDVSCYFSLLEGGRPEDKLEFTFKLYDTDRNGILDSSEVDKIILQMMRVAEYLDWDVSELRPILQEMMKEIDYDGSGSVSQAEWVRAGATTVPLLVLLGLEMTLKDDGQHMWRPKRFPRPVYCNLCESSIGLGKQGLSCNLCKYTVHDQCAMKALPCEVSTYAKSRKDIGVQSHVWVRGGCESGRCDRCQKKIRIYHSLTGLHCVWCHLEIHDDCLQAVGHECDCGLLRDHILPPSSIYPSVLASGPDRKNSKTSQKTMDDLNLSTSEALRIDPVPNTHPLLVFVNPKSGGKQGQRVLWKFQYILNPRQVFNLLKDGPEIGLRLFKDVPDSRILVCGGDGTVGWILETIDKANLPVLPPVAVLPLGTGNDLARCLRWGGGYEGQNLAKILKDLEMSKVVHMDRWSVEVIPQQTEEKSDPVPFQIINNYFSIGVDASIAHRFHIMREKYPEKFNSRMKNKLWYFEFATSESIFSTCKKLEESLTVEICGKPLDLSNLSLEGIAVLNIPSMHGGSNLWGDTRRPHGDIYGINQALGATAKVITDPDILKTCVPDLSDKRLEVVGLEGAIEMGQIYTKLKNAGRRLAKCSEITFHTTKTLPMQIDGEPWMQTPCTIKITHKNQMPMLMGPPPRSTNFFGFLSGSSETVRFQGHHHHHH
parameter: IC50

Recorded results for 5 compounds are shown here.
Cn1c(=O)c(C#N)c(N2CCN(Cc3cc(OC(F)(F)F)ccc3O)CC2)c2nc(Br)ccc21 = 190 nM
C#CCn1c(=O)c([N+](=O)[O-])c(N2CCN(C(c3ccc(F)cc3)c3ccc(F)cc3OC)CC2)c2nc(C#N)ccc21 (single isomer, unassigned) [Example 127] = 4200 nM
Cn1c(=O)c(C#N)c(N2CCN(Cc3ccccc3O)CC2)c2nc(C#N)ccc21 = 160 nM
Cn1c(=O)c(Br)c(N2CCN(C(c3ccc(F)cc3)c3ccc(F)cc3)CC2)c2ncccc21 = 8800 nM
Cn1c(=O)c(C#N)c(N2CCN(Cc3ccc(O)c(Cl)c3)CC2)c2nc(Cl)ccc21 = 110 nM

Consider now this further compound.
Value lookup for IC50; key = `Cc1cccc(CN2CCN(c3c(C#N)c(=O)n(C)c4ccc(Cl)nc34)CC2)c1`
350 nM
